pIC50: −log10 of the molar value.
Quick note: these are pIC50 numbers for system: Full length Human HDAC1 (Homo sapiens)
Sequence (Q13547 whole entry): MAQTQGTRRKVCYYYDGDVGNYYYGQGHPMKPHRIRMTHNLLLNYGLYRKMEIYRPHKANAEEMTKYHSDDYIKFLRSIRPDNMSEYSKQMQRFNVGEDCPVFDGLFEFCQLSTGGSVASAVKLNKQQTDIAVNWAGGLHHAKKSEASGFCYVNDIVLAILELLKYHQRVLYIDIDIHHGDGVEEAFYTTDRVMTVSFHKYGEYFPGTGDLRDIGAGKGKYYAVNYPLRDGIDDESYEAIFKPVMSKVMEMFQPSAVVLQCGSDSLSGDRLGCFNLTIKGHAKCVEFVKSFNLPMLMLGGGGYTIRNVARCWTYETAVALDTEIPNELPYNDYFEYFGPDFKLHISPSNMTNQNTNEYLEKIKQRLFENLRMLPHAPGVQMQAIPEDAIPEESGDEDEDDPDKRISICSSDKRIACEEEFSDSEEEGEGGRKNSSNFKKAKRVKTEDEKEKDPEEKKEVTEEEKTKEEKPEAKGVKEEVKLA

The following molecules have reported results that may help.
Nc1ccc(-c2cccs2)nc1NC(=O)N1CCC(c2ncccn2)C1 (stereo not shown)    > 6.30
Nc1ccc(-c2ccc(F)cc2F)nc1NC(=O)N1CCC(c2cccnn2)C1 (stereo not shown)    6.00 to 6.30
Cc1ccnc(C2CCN(C(=O)Nc3nc(-c4ccc(F)cc4F)ccc3N)C2)n1 (stereo not shown)    > 6.30
Nc1ccc(-c2ccc(F)s2)nc1NC(=O)N1CCC(c2ncccn2)C1 (single isomer, unassigned)    5.70 to 6.00
Nc1ccc(-c2ccc(F)s2)nc1NC(=O)N1CCC(c2ncc(F)cn2)C1 (single isomer, unassigned) [Compound 44]    > 6.30
Nc1ccc(-c2ccc(F)s2)nc1NC(=O)N1CCC(c2ncc(F)cn2)C1 (single isomer, unassigned) [Compound 43]    5.70 to 6.00

Quick one: pIC50 for Nc1ccc(-c2ccc(F)cc2)nc1NC(=O)N1CCC(F)(c2ncccn2)C1 (single isomer, unassigned) ?
> 6.30

* * *

- experimental-target: HDAC2 (Homo sapiens, UniProt Q92769)
- Construct: host or cells: SH-SY5Y cells
- Sequence (Q92769 whole entry): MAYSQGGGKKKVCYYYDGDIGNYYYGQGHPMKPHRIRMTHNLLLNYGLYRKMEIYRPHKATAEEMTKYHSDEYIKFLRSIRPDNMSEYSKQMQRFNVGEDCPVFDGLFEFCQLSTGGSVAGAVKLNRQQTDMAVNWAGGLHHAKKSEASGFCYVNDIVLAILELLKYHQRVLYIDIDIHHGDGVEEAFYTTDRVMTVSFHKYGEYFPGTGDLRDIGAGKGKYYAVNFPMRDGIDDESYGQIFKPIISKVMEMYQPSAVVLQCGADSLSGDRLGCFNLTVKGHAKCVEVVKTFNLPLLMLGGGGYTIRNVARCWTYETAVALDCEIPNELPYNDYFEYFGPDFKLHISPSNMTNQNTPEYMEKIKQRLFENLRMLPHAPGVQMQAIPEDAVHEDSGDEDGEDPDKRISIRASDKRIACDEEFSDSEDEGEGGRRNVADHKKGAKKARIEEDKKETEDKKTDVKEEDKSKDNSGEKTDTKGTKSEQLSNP
- procedure-summary: HDAC2 enzymatic inhibition assay in SH-SY5Y cell lysate with an exogenous substrate (HDAC-Glo 2)
- Assay type: cell-based
- conditions-used: SH-SY5Y cells, HDAC-Glo 2; numeric values, Table 4
- Description: HDAC2 Enzymatic Inhibition Assay in SH-SY5Y Cell Lysate with an Exogenous Substrate SH-SY5Y cells (Sigma) were cultured in Eagle's Modified Essential Medium supplemented with 10% fetal bovine serum and pen/strep. Twenty-four hours prior to compound dosing 20 uL of cells were plated in white 384 well plates at a density of 1,500 cells/well. […] Plates were then read with a Spectramax LMax luminometer employing a 0.4 s integration time. […]
value-kind: IC50 (nM)

The following compounds have reported results that may help.
Nc1ccc(-c2ccc(F)cc2F)nc1NC(=O)N1CCC(F)(c2ncccn2)C1 (stereo not shown)    768
Nc1ccc(-c2ccc(F)cc2F)nc1NC(=O)N1CCC(Cc2cccnn2)C1 (stereo not shown)    535
Nc1ccc(-c2ccc(F)cc2)nc1NC(=O)N1CCC(F)(F)C1 [Comparator B, reference compound]    14000
Nc1ccc(-c2ccc(F)cc2)nc1NC(=O)N1CCC(C(F)(F)F)C1 (stereo not shown) [Comparator C, reference compound]    6360
Cc1cnc(C2CCN(C(=O)Nc3nc(-c4ccc(F)cc4F)ccc3N)C2)cn1 (stereo not shown)    550

[I] Nc1ccc(-c2ccc(F)cc2F)nc1NC(=O)N1CCC(Cc2ncccn2)C1 (stereo not shown)
[II] Nc1ccc(-c2ccc(F)cc2)nc1NC(=O)N1CCC(c2ncccn2)C1 (stereo not shown)
Which of the two gives a bigger number for IC50: I or II ? Returns: label corresponding to the selected item.
I

[I] Nc1ccc(-c2ccc(F)cc2)nc1NC(=O)N1CCC(c2ncc(F)cn2)C1 (stereo not shown)
[II] Nc1ccc(-c2ccc(F)cc2)nc1NC(=O)N1CCCC1 [Comparator A, reference compound]
Which of the two gives a bigger number for IC50: I or II ? Returns: label corresponding to the selected item.
II

* * *

- experimental-target: HDAC2 (Homo sapiens, UniProt Q92769)
- Construct: host or cells: SH-SY5Y cells
- procedure-summary: HDAC2 enzymatic inhibition assay in SH-SY5Y cell lysate with an exogenous substrate (HDAC-Glo 2)
- Type: cell-based
- conditions-used: SH-SY5Y cells, five hours incubation, HDAC-Glo 2 reagent; class symbols
pIC50: −log10 of the molar value.
Listed next: entries and their corresponding pIC50.

Nc1ccc(-c2ccc(F)cc2F)nc1NC(=O)N1CCC(Cc2cccnn2)C1 (centres unmarked) [Compound 26]    6.00 to 6.30
Cc1ccnc(CC2CCN(C(=O)Nc3nc(-c4ccc(F)cc4F)ccc3N)C2)n1 (centres unmarked) [Compound 27]    5.70 to 6.00

Please tell me: pIC50 of Nc1ccc(-c2ccc(F)s2)nc1NC(=O)N1CCC(c2ncccn2)C1 (single isomer, unassigned) [Compound 39] , system HDAC2 (Homo sapiens, UniProt Q92769)?
< 5.70

Please tell me: pIC50 of Nc1ccc(-c2ccc(F)cc2F)nc1NC(=O)N1CCC(c2cccnc2)C1 (centres unmarked) [Compound 2] , system HDAC2 (Homo sapiens, UniProt Q92769)?
< 5.70

Please tell me: pIC50 of Nc1ccc(-c2ccccc2F)nc1NC(=O)N1CCC(c2ncccn2)C1 (centres unmarked) [Compound 48] , system HDAC2 (Homo sapiens, UniProt Q92769)?
5.70 to 6.00

Please tell me: pIC50 of Nc1ccc(-c2ccc(F)cc2F)nc1NC(=O)N1CCC(F)(c2ncccn2)C1 (single isomer, unassigned) [Compound 29E2] , system HDAC2 (Homo sapiens, UniProt Q92769)?
5.70 to 6.00

Please tell me: pIC50 of Nc1ccc(-c2ccc(F)cc2F)nc1NC(=O)N1CCC(c2ncc(F)cn2)C1 (single isomer, unassigned) [Compound 14E1] , system HDAC2 (Homo sapiens, UniProt Q92769)?
6.00 to 6.30

Please tell me: pIC50 of Nc1ccc(-c2ccc(F)cc2F)nc1NC(=O)N1CCC(Cc2ncccn2)C1 (single isomer, unassigned) [Compound 25E1] , system HDAC2 (Homo sapiens, UniProt Q92769)?
6.00 to 6.30
